The molecules listed here are annotated with their EC50.
# Test system: H4
# Test Description: Luminescence Cell-Based Dose Response HTS to Identify Activators of 5'UTR Stem-Loop Driven Prion Protein mRNA Translation in H4 Neuroglioblastoma Cells. [Related pubchem assays: 1829 (Project Summary), 1814 (Primary HTS)]
# Assay type: functional
# Protocol Conditions: Homo sapiens
The source made the active and inactive calls. Rule as the data show it: actives have a measured EC50 and inactives only a lower limit.

Recorded EC50, per entry:
{"Molecule": "Nc1nnc(CC(=O)N/N=C/c2cccc(OCCOc3ccccc3)c2)s1", "Experimental Target": "H4", "EC50": "21.8 µM (active)"}
{"Molecule": "CCN1C(=S)SC(=O)C1=C1C=C(C)N(Cc2ccco2)C(C)=C1", "Experimental Target": "H4", "EC50": "< 0.1 µM (active)"}
{"Molecule": "CCOC(=O)c1cc(C)n(CCc2ccccc2)c1C", "Experimental Target": "H4", "EC50": "> 120 µM (not active)"}

Any idea what its EC50 is? The molecule is Cc1ccc(NC(=O)NCC2CC2(Cl)Cl)cc1 (centres undefined)
8.76 µM (active)
